Observed pIC50, system UniProtKB Q9UHD2.
Sequence (Q9UHD2 whole entry, species assumed): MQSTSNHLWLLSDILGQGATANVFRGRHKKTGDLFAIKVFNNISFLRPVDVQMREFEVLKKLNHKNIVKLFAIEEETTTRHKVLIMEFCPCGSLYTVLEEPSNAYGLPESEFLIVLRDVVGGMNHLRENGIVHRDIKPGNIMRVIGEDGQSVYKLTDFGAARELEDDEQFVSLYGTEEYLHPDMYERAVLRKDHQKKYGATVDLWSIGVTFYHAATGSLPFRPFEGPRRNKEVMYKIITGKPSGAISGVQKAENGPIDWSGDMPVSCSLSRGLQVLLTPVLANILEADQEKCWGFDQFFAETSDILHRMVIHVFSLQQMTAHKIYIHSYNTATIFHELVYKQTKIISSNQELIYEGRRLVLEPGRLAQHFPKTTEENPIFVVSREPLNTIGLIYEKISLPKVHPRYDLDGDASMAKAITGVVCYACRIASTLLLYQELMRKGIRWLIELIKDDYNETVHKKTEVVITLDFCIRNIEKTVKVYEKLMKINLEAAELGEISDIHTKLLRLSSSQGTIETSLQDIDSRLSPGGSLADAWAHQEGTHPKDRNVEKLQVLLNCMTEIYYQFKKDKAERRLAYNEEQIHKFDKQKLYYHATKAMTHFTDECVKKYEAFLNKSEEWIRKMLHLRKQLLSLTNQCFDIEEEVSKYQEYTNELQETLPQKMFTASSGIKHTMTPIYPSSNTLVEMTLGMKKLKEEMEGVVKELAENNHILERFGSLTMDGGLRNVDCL
pIC50: −log10 of the molar value. Counter-ions that a name gives are not always drawn.
metric: pIC50

{"compound": "COc1nc(Nc2cc(-c3ccc(OC4CCOCC4)c(C#N)c3)ncn2)ccc1C(=O)N1C2CCCC1COC2", "assay_system": "UniProtKB Q9UHD2", "metric": "pIC50", "test_result": "> 7.00"}
{"compound": "COc1nc(Nc2cc(-c3ccc(OC4CCOCC4)c(C#N)c3)ncn2)ccc1C1CCN(CC(F)(F)F)CC1", "assay_system": "UniProtKB Q9UHD2", "metric": "pIC50", "test_result": "6.00 to 7.00"}
{"compound": "COc1nc(Nc2cc(-c3ccc(OC4CCOCC4)c(C#N)c3)ncn2)ccc1C(=O)N1CC2CC(C1)O2", "assay_system": "UniProtKB Q9UHD2", "metric": "pIC50", "test_result": "> 7.00"}
{"compound": "COc1nc(Nc2cc(-c3ccc(OC4CCN(C(=O)c5n[nH]c(C)n5)CC4)c(C#N)c3)ncn2)ccc1N1CCN(C)CC1", "assay_system": "UniProtKB Q9UHD2", "metric": "pIC50", "test_result": "> 7.00"}
{"compound": "COc1nc(Nc2cc(-c3ccc(OC4CCOCC4)c(C#N)n3)ncn2)ccc1N1CCN(C)CC1", "assay_system": "UniProtKB Q9UHD2", "metric": "pIC50", "test_result": "6.00 to 7.00"}
{"compound": "COc1nc(Nc2cc(-c3ccc(OC4CCN(C(=O)[C@H](C)O)CC4(F)F)c(C#N)c3)ncn2)ccc1N1CCN(C)[C@H](C)C1 (stereo partly shown) [Example 74, hydrochloride]", "assay_system": "UniProtKB Q9UHD2", "metric": "pIC50", "test_result": "> 7.00"}
{"compound": "COc1nc(Nc2cc(-c3ccc(OC4CCN(C(=O)[C@@H](C)O)CC4(F)F)c(C#N)c3)ncn2)ccc1N1CCN(C)[C@H](C)C1 (stereo partly shown) [Example 75, hydrochloride]", "assay_system": "UniProtKB Q9UHD2", "metric": "pIC50", "test_result": "> 7.00"}
{"compound": "COc1nc(Nc2cc(-c3ccc(OC4CCN(C(=O)[C@H](C)O)CC4(F)F)c(C#N)c3)ncn2)ccc1N1CCN(C)[C@@H](C)C1 (stereo partly shown)", "assay_system": "UniProtKB Q9UHD2", "metric": "pIC50", "test_result": "> 7.00"}
{"compound": "COc1nc(Nc2cc(-c3ccc(OC4CCN(C(=O)[C@H](C)O)CC4(F)F)c(C#N)c3)ncn2)ccc1N1CCN(C2COC2)CC1 (stereo partly shown)", "assay_system": "UniProtKB Q9UHD2", "metric": "pIC50", "test_result": "> 7.00"}
{"compound": "COc1nc(Nc2cc(-c3ccc(OC4CCOCC4)c(C#N)c3)ncn2)ccc1N1CCS(=O)(=O)CC1", "assay_system": "UniProtKB Q9UHD2", "metric": "pIC50", "test_result": "> 7.00"}
{"compound": "COc1nc(Nc2cc(-c3ccc(OC4CCNCC4(F)F)c(C#N)c3)ncn2)ccc1N1CCN(C)C[C@H]1C (stereo partly shown)", "assay_system": "UniProtKB Q9UHD2", "metric": "pIC50", "test_result": "> 7.00"}
{"compound": "COc1nc(Nc2cc(-c3ccc(O[C@H]4CCN(C(=O)[C@H](C)O)CC4(F)F)c(C#N)c3)ncn2)ccc1N1CCN(C2COC2)C[C@@H]1C", "assay_system": "UniProtKB Q9UHD2", "metric": "pIC50", "test_result": "> 7.00"}
{"compound": "COc1nc(Nc2cc(-c3ccc(OC4CCNCC4(F)F)c(C#N)c3)ncn2)ccc1N1CCN(C2COC2)C[C@H]1C (stereo partly shown)", "assay_system": "UniProtKB Q9UHD2", "metric": "pIC50", "test_result": "> 7.00"}
